Data origin: patent US20180338980A1

# Tested Target: P2X4 (Homo sapiens, UniProt Q99571)
# Sequence (Q99571 whole entry): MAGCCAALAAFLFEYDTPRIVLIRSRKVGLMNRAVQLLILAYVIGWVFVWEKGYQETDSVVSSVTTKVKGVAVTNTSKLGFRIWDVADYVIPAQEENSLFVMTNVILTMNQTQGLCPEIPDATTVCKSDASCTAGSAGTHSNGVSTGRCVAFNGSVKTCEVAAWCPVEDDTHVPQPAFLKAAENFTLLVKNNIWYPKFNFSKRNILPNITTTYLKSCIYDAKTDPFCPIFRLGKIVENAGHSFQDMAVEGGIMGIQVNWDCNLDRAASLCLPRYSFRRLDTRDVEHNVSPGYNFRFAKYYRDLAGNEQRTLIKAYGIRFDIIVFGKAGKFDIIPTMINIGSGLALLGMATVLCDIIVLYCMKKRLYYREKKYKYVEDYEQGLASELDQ
# Protocol Details: Assay B: human P2X4 receptor cell line, mitochondrial photina luminescence (agonist Bz-ATP at EC50)
# Assay type: cell-based
# Set-up: host or cells: HEK 293 (recombinant, constitutively expressing; with mitochondrial photina in Assay B)
# Applied Conditions: HEK human P2X4 cell line, photina luminescence, agonist Bz-ATP at EC50, average
# Method: The identification of agonists and antagonists of the P2X4 receptor from humans and […] also the quantification of the activity of the compounds of the invention was performed by use of recombinant cell lines. […] The test cell lines constitutively express the mouse or human P2X4 receptors. […] The strength of Fluo8 fluorescence signal or photina luminescence signal corresponds to the level of receptor activation. […] The resulting light signal is measured immediately in the luminometer.
Readout Kind: pIC50
// pIC50 is dimensionless: -log10 of concentration (M)

Kindly note: P2X4 (Homo sapiens, UniProt Q99571), `N#Cc1cc(Cl)c(CC(=O)Nc2ccc(Oc3ccc(Cl)cc3)c(S(N)(=O)=O)c2)cc1Cl` , pIC50 value reported: 5.57

Kindly note: P2X4 (Homo sapiens, UniProt Q99571), `CN(C)C(=O)c1cccc(CC(=O)Nc2ccc(Oc3cccc(Cl)c3)c(S(N)(=O)=O)c2)c1` , pIC50 value reported: 6.56

Kindly note: P2X4 (Homo sapiens, UniProt Q99571), `NS(=O)(=O)c1cc(NC(=O)Cc2ccccc2Cl)ccc1Oc1cnc(Cl)c(Cl)c1` , pIC50 value reported: 7.17

Kindly note: P2X4 (Homo sapiens, UniProt Q99571), `COCCN(C)C(=O)c1ccccc1CC(=O)Nc1ccc(Oc2cccc(Cl)c2)c(S(N)(=O)=O)c1` , pIC50 value reported: 5.38

Kindly note: P2X4 (Homo sapiens, UniProt Q99571), `Cc1cccc(CC(=O)Nc2cc(F)c(Oc3cccc(Cl)c3)c(S(N)(=O)=O)c2)c1` , pIC50 value reported: 5.49

Kindly note: P2X4 (Homo sapiens, UniProt Q99571), `NS(=O)(=O)c1cc(NC(=O)Cc2ccccc2)ccc1Oc1ccc(F)cc1` , pIC50 value reported: 5.89

Kindly note: P2X4 (Homo sapiens, UniProt Q99571), `NS(=O)(=O)c1cc(NC(=O)Cc2cccc(F)c2)ccc1Oc1cccc(Cl)c1` , pIC50 value reported: 6.67

Kindly note: P2X4 (Homo sapiens, UniProt Q99571), `Cc1ccc(Cl)c(CC(=O)Nc2ccc(Oc3cccc(Cl)c3)c(S(N)(=O)=O)c2)c1` , pIC50 value reported: 6.91

Kindly note: P2X4 (Homo sapiens, UniProt Q99571), `NS(=O)(=O)c1cc(NC(=O)Cc2ccc(C(F)F)cc2)ccc1Oc1ccc(Cl)cc1` , pIC50 value reported: 6.16

Kindly note: P2X4 (Homo sapiens, UniProt Q99571), `N#Cc1ccccc1CC(=O)Nc1ccc(Oc2cccc(Cl)c2)c(S(N)(=O)=O)c1` , pIC50 value reported: 6.72
